experiment: LC-MS/MS quantitation of drugs in single-point patient plasma samples (therapeutic drug monitoring); type: in vivo, human; details: human, plasma, oral; patient 2; RIB 600 mg daily; sampling day 24 of cycle (off-treatment week)
measurement kind: concentration at 24 day
The answer consists of two parts: a number and, after it, its unit.

# return recorded concentration at 24 day for input "CN(C)C(=O)c1cc2cnc(Nc3ccc(N4CCNCC4)cn3)nc2n1C1CCCC1"
57.4 ng/mL

###

Overview of reported Stability Bias (%) 2 FT Cycles (30 min, −18–25 °C) across a group of molecules:
assay: Stability of the analytes in plasma (bench top, autosampler, freeze-thaw, long-term); type: physicochemical, human; settings: plasma, lower QC level (RIB 62.5, ABE 37.5, PAL 6.2, ANA 2.5, LET 6.25, FUL 12.5 ng/mL), N = 3
Value expressed in %; do not type the unit.

These solved cases illustrate the format of a correct answer.
# return recorded Stability Bias (%) 2 FT Cycles (30 min, −18–25 °C) for input "CC(=O)c1c(C)c2cnc(Nc3ccc(N4CCNCC4)cn3)nc2n(C2CCCC2)c1=O"
1.86

# return recorded Stability Bias (%) 2 FT Cycles (30 min, −18–25 °C) for input "CC(C)(C#N)c1cc(Cn2cncn2)cc(C(C)(C)C#N)c1"
−2.80

# return recorded Stability Bias (%) 2 FT Cycles (30 min, −18–25 °C) for input "CCN1CCN(Cc2ccc(Nc3ncc(F)c(-c4cc(F)c5nc(C)n(C(C)C)c5c4)n3)nc2)CC1"
−7.43

# return recorded Stability Bias (%) 2 FT Cycles (30 min, −18–25 °C) for input C[C@]12CC[C@@H]3c4ccc(O)cc4C[C@@H](CCCCCCCCC[S+]([O-])CCCC(F)(F)C(F)(F)F)[C@H]3[C@@H]1CC[C@@H]2O (stereo partly drawn)
−13.24

# return recorded Stability Bias (%) 2 FT Cycles (30 min, −18–25 °C) for input "N#Cc1ccc(C(c2ccc(C#N)cc2)n2cncn2)cc1"
−6.52

Please find the next molecule below.
# return recorded Stability Bias (%) 2 FT Cycles (30 min, −18–25 °C) for input "CN(C)C(=O)c1cc2cnc(Nc3ccc(N4CCNCC4)cn3)nc2n1C1CCCC1"
1.69

###

assay: Stability of the analytes in plasma (bench top, autosampler, freeze-thaw, long-term); assay type: physicochemical, human; details: unprocessed plasma, higher QC level (RIB 2500, ABE 1500, PAL 250, ANA 100, LET 250, FUL 500 ng/mL), N = 3, vs fresh QC
measurement kind: Stability Bias (%) Bench Top (2 h, 25 °C)
Value expressed in %; do not type the unit.

# return recorded Stability Bias (%) Bench Top (2 h, 25 °C) for input N#Cc1ccc(C(c2ccc(C#N)cc2)n2cncn2)cc1 [LET, letrozole]
6.16

# return recorded Stability Bias (%) Bench Top (2 h, 25 °C) for input CN(C)C(=O)c1cc2cnc(Nc3ccc(N4CCNCC4)cn3)nc2n1C1CCCC1 [RIB, ribociclib]
4.96

# return recorded Stability Bias (%) Bench Top (2 h, 25 °C) for input CCN1CCN(Cc2ccc(Nc3ncc(F)c(-c4cc(F)c5nc(C)n(C(C)C)c5c4)n3)nc2)CC1 [ABE, abemaciclib]
−0.10

# return recorded Stability Bias (%) Bench Top (2 h, 25 °C) for input CC(=O)c1c(C)c2cnc(Nc3ccc(N4CCNCC4)cn3)nc2n(C2CCCC2)c1=O [PAL, palbociclib]
−4.37

# return recorded Stability Bias (%) Bench Top (2 h, 25 °C) for input CC(C)(C#N)c1cc(Cn2cncn2)cc(C(C)(C)C#N)c1 [ANA, anastrozole]
−0.62

# return recorded Stability Bias (%) Bench Top (2 h, 25 °C) for input C[C@]12CC[C@@H]3c4ccc(O)cc4C[C@@H](CCCCCCCCC[S+]([O-])CCCC(F)(F)C(F)(F)F)[C@H]3[C@@H]1CC[C@@H]2O (stereo partly drawn) [FUL, fulvestrant]
2.32

###

test: LC-MS/MS quantitation of drugs in single-point patient plasma samples (therapeutic drug monitoring); assay type: in vivo, human; settings: human, plasma, oral; patient 6; RIB 600 mg daily; sampling day 28 (off-treatment week)
measurement kind: concentration at 28 day
The answer consists of two parts: a number and, after it, its unit.

# return recorded concentration at 28 day for input "CN(C)C(=O)c1cc2cnc(Nc3ccc(N4CCNCC4)cn3)nc2n1C1CCCC1"
27.2 ng/mL

###

Overview of reported Stability Bias (%) 1 FT Cycle (30 min, −18–25 °C) across a group of molecules:
assay: Stability of the analytes in plasma (bench top, autosampler, freeze-thaw, long-term); type: physicochemical, human; settings: plasma, lower QC level (RIB 62.5, ABE 37.5, PAL 6.2, ANA 2.5, LET 6.25, FUL 12.5 ng/mL), N = 3
Value expressed in %; do not type the unit.

These solved cases illustrate the format of a correct answer.
# return recorded Stability Bias (%) 1 FT Cycle (30 min, −18–25 °C) for input C[C@]12CC[C@@H]3c4ccc(O)cc4C[C@@H](CCCCCCCCC[S+]([O-])CCCC(F)(F)C(F)(F)F)[C@H]3[C@@H]1CC[C@@H]2O (stereo partly drawn)
−14.59

# return recorded Stability Bias (%) 1 FT Cycle (30 min, −18–25 °C) for input "CCN1CCN(Cc2ccc(Nc3ncc(F)c(-c4cc(F)c5nc(C)n(C(C)C)c5c4)n3)nc2)CC1"
13.23

# return recorded Stability Bias (%) 1 FT Cycle (30 min, −18–25 °C) for input "CN(C)C(=O)c1cc2cnc(Nc3ccc(N4CCNCC4)cn3)nc2n1C1CCCC1"
7.88

# return recorded Stability Bias (%) 1 FT Cycle (30 min, −18–25 °C) for input "CC(C)(C#N)c1cc(Cn2cncn2)cc(C(C)(C)C#N)c1"
−7.88

# return recorded Stability Bias (%) 1 FT Cycle (30 min, −18–25 °C) for input "CC(=O)c1c(C)c2cnc(Nc3ccc(N4CCNCC4)cn3)nc2n(C2CCCC2)c1=O"
14.97

Please find the next molecule below.
# return recorded Stability Bias (%) 1 FT Cycle (30 min, −18–25 °C) for input "N#Cc1ccc(C(c2ccc(C#N)cc2)n2cncn2)cc1"
−0.06

###

assay: Stability of the analytes in plasma (bench top, autosampler, freeze-thaw, long-term); type: physicochemical, human; conditions: processed plasma sample, lower QC level (RIB 62.5, ABE 37.5, PAL 6.2, ANA 2.5, LET 6.25, FUL 12.5 ng/mL), N = 3
measurement kind: Stability Bias (%) Autosampler (10 h, 10 °C)
Value expressed in %; do not type the unit.

These solved cases illustrate the format of a correct answer.
# return recorded Stability Bias (%) Autosampler (10 h, 10 °C) for input "N#Cc1ccc(C(c2ccc(C#N)cc2)n2cncn2)cc1"
6.11

# return recorded Stability Bias (%) Autosampler (10 h, 10 °C) for input C[C@]12CC[C@@H]3c4ccc(O)cc4C[C@@H](CCCCCCCCC[S+]([O-])CCCC(F)(F)C(F)(F)F)[C@H]3[C@@H]1CC[C@@H]2O (stereo partly drawn)
7.38

# return recorded Stability Bias (%) Autosampler (10 h, 10 °C) for input "CN(C)C(=O)c1cc2cnc(Nc3ccc(N4CCNCC4)cn3)nc2n1C1CCCC1"
8.95

# return recorded Stability Bias (%) Autosampler (10 h, 10 °C) for input "CC(C)(C#N)c1cc(Cn2cncn2)cc(C(C)(C)C#N)c1"
2.27

# return recorded Stability Bias (%) Autosampler (10 h, 10 °C) for input "CC(=O)c1c(C)c2cnc(Nc3ccc(N4CCNCC4)cn3)nc2n(C2CCCC2)c1=O"
13.69

Please find the next molecule below.
# return recorded Stability Bias (%) Autosampler (10 h, 10 °C) for input "CCN1CCN(Cc2ccc(Nc3ncc(F)c(-c4cc(F)c5nc(C)n(C(C)C)c5c4)n3)nc2)CC1"
11.51

###

Overview of reported Stability Bias (%) Long-Term (2 Weeks, −18 °C) across a group of compounds:
test: Stability of the analytes in plasma (bench top, autosampler, freeze-thaw, long-term); type: physicochemical, human; conditions: plasma, lower QC level (RIB 62.5, ABE 37.5, PAL 6.2, ANA 2.5, LET 6.25, FUL 12.5 ng/mL), N = 3
Value expressed in %; do not type the unit.

These solved cases illustrate the format of a correct answer.
# return recorded Stability Bias (%) Long-Term (2 Weeks, −18 °C) for input "CCN1CCN(Cc2ccc(Nc3ncc(F)c(-c4cc(F)c5nc(C)n(C(C)C)c5c4)n3)nc2)CC1"
7.60

# return recorded Stability Bias (%) Long-Term (2 Weeks, −18 °C) for input "CN(C)C(=O)c1cc2cnc(Nc3ccc(N4CCNCC4)cn3)nc2n1C1CCCC1"
13.89

# return recorded Stability Bias (%) Long-Term (2 Weeks, −18 °C) for input "CC(=O)c1c(C)c2cnc(Nc3ccc(N4CCNCC4)cn3)nc2n(C2CCCC2)c1=O"
12.29

# return recorded Stability Bias (%) Long-Term (2 Weeks, −18 °C) for input "CC(C)(C#N)c1cc(Cn2cncn2)cc(C(C)(C)C#N)c1"
3.09

# return recorded Stability Bias (%) Long-Term (2 Weeks, −18 °C) for input "N#Cc1ccc(C(c2ccc(C#N)cc2)n2cncn2)cc1"
−10.44

Please find the next compound below.
# return recorded Stability Bias (%) Long-Term (2 Weeks, −18 °C) for input C[C@]12CC[C@@H]3c4ccc(O)cc4C[C@@H](CCCCCCCCC[S+]([O-])CCCC(F)(F)C(F)(F)F)[C@H]3[C@@H]1CC[C@@H]2O (stereo partly drawn)
−5.01
